B1: USP39 (parent)
chain: FVEKNPTIVNFPITNVDLREYLSE

Variants of: B1
Assay: protein stability index of a GFP-peptide fusion (GPS, HEK-293T) (PSI 1-6); higher = more stable;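 note: lentivirally expressed fusions sorted by FACS into six bins by GFP to DsRed ratio, PSI derived from sequencing read proportions per bin multiplied by bin number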
Conditions: c terminus: a fixed tail appended
Criterion: protein stability index meeting or surpassing 2. Met: TRUE. Not met: FALSE.

[
  {
    "changes": "V9M",
    "answerLabel": "FALSE"
  },
  {
    "changes": "F1H",
    "answerLabel": "TRUE"
  },
  {
    "changes": "F11I",
    "answerLabel": "TRUE"
  },
  {
    "changes": "V16S",
    "answerLabel": "FALSE"
  },
  {
    "changes": "I8Q",
    "answerLabel": "TRUE"
  },
  {
    "changes": "R19M",
    "answerLabel": "FALSE"
  },
  {
    "changes": "K4V",
    "answerLabel": "FALSE"
  },
  {
    "changes": "V9D",
    "answerLabel": "TRUE"
  },
  {
    "changes": "R19I",
    "answerLabel": "TRUE"
  },
  {
    "changes": "T14R",
    "answerLabel": "TRUE"
  },
  {
    "changes": "V16M",
    "answerLabel": "TRUE"
  },
  {
    "changes": "L18F",
    "answerLabel": "TRUE"
  },
  {
    "changes": "S23T",
    "answerLabel": "FALSE"
  },
  {
    "changes": "E24G",
    "answerLabel": "TRUE"
  },
  {
    "changes": "L22D",
    "answerLabel": "FALSE"
  },
  {
    "changes": "E24A",
    "answerLabel": "TRUE"
  },
  {
    "changes": "F1K",
    "answerLabel": "TRUE"
  },
  {
    "changes": "E3G",
    "answerLabel": "FALSE"
  },
  {
    "changes": "L22F",
    "answerLabel": "TRUE"
  },
  {
    "changes": "E20D",
    "answerLabel": "FALSE"
  },
  {
    "changes": "S23Q",
    "answerLabel": "FALSE"
  },
  {
    "changes": "P6M",
    "answerLabel": "TRUE"
  },
  {
    "changes": "S23E",
    "answerLabel": "FALSE"
  },
  {
    "changes": "P12W",
    "answerLabel": "TRUE"
  },
  {
    "changes": "I8R",
    "answerLabel": "TRUE"
  },
  {
    "changes": "L18Y",
    "answerLabel": "FALSE"
  },
  {
    "changes": "P12Q",
    "answerLabel": "FALSE"
  },
  {
    "changes": "Y21Q",
    "answerLabel": "FALSE"
  },
  {
    "changes": "R19L",
    "answerLabel": "TRUE"
  },
  {
    "changes": "V9T",
    "answerLabel": "TRUE"
  },
  {
    "changes": "I13C",
    "answerLabel": "FALSE"
  },
  {
    "changes": "E3N",
    "answerLabel": "FALSE"
  },
  {
    "changes": "F1V",
    "answerLabel": "TRUE"
  },
  {
    "changes": "L18Q",
    "answerLabel": "TRUE"
  },
  {
    "changes": "P12S",
    "answerLabel": "FALSE"
  },
  {
    "changes": "P6C",
    "answerLabel": "TRUE"
  },
  {
    "changes": "N15K",
    "answerLabel": "TRUE"
  },
  {
    "changes": "V9S",
    "answerLabel": "FALSE"
  },
  {
    "changes": "E3I",
    "answerLabel": "FALSE"
  },
  {
    "changes": "D17K",
    "answerLabel": "FALSE"
  },
  {
    "changes": "E24K",
    "answerLabel": "FALSE"
  },
  {
    "changes": "F1Q",
    "answerLabel": "TRUE"
  },
  {
    "changes": "I8T",
    "answerLabel": "TRUE"
  },
  {
    "changes": "N5K",
    "answerLabel": "TRUE"
  },
  {
    "changes": "K4Q",
    "answerLabel": "TRUE"
  },
  {
    "changes": "I13L",
    "answerLabel": "FALSE"
  },
  {
    "changes": "P6D",
    "answerLabel": "TRUE"
  },
  {
    "changes": "E20F",
    "answerLabel": "FALSE"
  },
  {
    "changes": "L18K",
    "answerLabel": "FALSE"
  },
  {
    "changes": "R19P",
    "answerLabel": "TRUE"
  },
  {
    "changes": "N15S",
    "answerLabel": "FALSE"
  },
  {
    "changes": "P12I",
    "answerLabel": "TRUE"
  },
  {
    "changes": "Y21C",
    "answerLabel": "FALSE"
  },
  {
    "changes": "N10Q",
    "answerLabel": "TRUE"
  },
  {
    "changes": "F1I",
    "answerLabel": "TRUE"
  },
  {
    "changes": "N15Q",
    "answerLabel": "TRUE"
  },
  {
    "changes": "T7H",
    "answerLabel": "FALSE"
  },
  {
    "changes": "P12V",
    "answerLabel": "TRUE"
  },
  {
    "changes": "S23F",
    "answerLabel": "TRUE"
  },
  {
    "changes": "N10G",
    "answerLabel": "TRUE"
  },
  {
    "changes": "R19F",
    "answerLabel": "TRUE"
  },
  {
    "changes": "L22V",
    "answerLabel": "FALSE"
  },
  {
    "changes": "T7Y",
    "answerLabel": "TRUE"
  },
  {
    "changes": "Y21E",
    "answerLabel": "TRUE"
  },
  {
    "changes": "N10I",
    "answerLabel": "TRUE"
  },
  {
    "changes": "P6R",
    "answerLabel": "TRUE"
  },
  {
    "changes": "V2P",
    "answerLabel": "TRUE"
  },
  {
    "changes": "L22K",
    "answerLabel": "TRUE"
  },
  {
    "changes": "K4P",
    "answerLabel": "FALSE"
  },
  {
    "changes": "V9I",
    "answerLabel": "TRUE"
  },
  {
    "changes": "L18T",
    "answerLabel": "FALSE"
  },
  {
    "changes": "T14K",
    "answerLabel": "FALSE"
  },
  {
    "changes": "V2D",
    "answerLabel": "TRUE"
  },
  {
    "changes": "L18V",
    "answerLabel": "TRUE"
  },
  {
    "changes": "E24W",
    "answerLabel": "FALSE"
  },
  {
    "changes": "F11D",
    "answerLabel": "TRUE"
  },
  {
    "changes": "E20M",
    "answerLabel": "TRUE"
  },
  {
    "changes": "S23D",
    "answerLabel": "FALSE"
  },
  {
    "changes": "E3L",
    "answerLabel": "FALSE"
  },
  {
    "changes": "V16T",
    "answerLabel": "TRUE"
  },
  {
    "changes": "L18N",
    "answerLabel": "FALSE"
  },
  {
    "changes": "N5T",
    "answerLabel": "TRUE"
  },
  {
    "changes": "D17M",
    "answerLabel": "FALSE"
  }
]
